- system: Neuropilin-1 (Homo sapiens) (UniProt O14786)
- Sequence (O14786 whole entry, looked up): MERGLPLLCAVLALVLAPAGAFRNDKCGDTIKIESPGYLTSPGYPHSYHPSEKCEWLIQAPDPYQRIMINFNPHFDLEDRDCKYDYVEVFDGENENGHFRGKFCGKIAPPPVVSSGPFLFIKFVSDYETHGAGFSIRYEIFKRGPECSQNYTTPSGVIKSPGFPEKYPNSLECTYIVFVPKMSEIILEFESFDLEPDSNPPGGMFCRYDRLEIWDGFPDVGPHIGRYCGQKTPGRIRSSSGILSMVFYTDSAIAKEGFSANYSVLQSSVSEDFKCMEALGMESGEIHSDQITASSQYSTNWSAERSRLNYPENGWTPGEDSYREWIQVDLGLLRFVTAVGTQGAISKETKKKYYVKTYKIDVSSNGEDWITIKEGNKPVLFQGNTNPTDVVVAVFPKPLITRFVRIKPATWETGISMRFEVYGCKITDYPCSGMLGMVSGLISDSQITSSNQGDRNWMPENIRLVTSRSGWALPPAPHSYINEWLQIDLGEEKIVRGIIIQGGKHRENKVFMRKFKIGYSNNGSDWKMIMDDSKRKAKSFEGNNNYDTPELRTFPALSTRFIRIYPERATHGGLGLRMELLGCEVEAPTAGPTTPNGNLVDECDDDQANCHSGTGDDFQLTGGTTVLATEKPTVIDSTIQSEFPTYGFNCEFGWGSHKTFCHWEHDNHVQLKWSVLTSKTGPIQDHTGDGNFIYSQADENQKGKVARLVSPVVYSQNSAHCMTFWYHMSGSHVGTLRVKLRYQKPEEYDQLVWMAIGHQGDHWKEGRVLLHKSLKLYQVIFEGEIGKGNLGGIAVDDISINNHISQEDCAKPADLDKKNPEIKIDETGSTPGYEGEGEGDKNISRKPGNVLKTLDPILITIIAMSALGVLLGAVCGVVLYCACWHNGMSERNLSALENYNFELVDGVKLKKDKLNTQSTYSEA
- procedure-summary: blockers of CendR peptide binding to NRP-1 – biochemical, FP and AlphaScreen panel, dose response (AID 651650)
- conditions: NRP-1 b1b2 / RPARPAR peptide binding, FP or AlphaScreen; run 1, at 100 µM (top of the series)
readout-name: inhibition (%)
Give the number; % is assumed, so skip it.

Task: Look at this molecule and give its reported inhibition. CCc1ccc(NC(=O)CCn2nc(C)c(S(=O)(=O)N3CCCCC3)c2C)cc1
Output: 51.9

Task: Given the entry CCN(CC(=O)NCc1cccs1)S(=O)(=O)c1ccc(C(C)C)cc1 , report its measured inhibition.
Output: 1.66

Task: # input molecule: COC(=O)C1N[C@@H]([C@@H](NC(=O)COc2ccccc2)C(=O)NCc2ccccc2)SC1(C)C (some centres not stated) ; wanted: its inhibition
Output: 18.2

Task: I am curious: what inhibition value has been reported for Cc1ccc(S(=O)(=O)NCC(=O)N(c2ccccc2)C(C(=O)NCc2ccccc2)c2ccco2)cc1 (configuration not stated) ?
Output: -4.65

Task: # lookup: inhibition of CC(C)NC(=O)c1c(CSc2ccccc2)noc1C(=O)NCc1ccccc1
Output: 49

Task: Quick check: inhibition of COc1ccccc1C(=O)NC(=O)CSc1nncn1C ?
Output: 30.4

Task: Param item = N#Cc1ccc(COC(=O)c2cnc(Cl)c(Cl)c2)cc1 ; retrieve measured inhibition.
Output: 36.5

Task: Sample NS(=O)(=O)c1cccnc1Nc1cccc(Cl)c1Cl — what was its inhibition?
Output: 14.4

Task: May I ask what inhibition has been recorded for COc1ccc([C@H]2/C=C\CN(S(C)(=O)=O)[C@@H](C)C(=O)N2Cc2ccc(F)cc2)cc1 ?
Output: 28.8

Task: I'd like to know its inhibition. The molecule in question is Cn1c(=NC(=O)COc2ccccc2)sc2ccccc21
Output: -1.2

Task: Would you kindly share the measured inhibition for O=C(O)c1ccccc1CSc1ccccn1 ?
Output: 101

Task: Which inhibition value belongs to Cc1ccc(C(=O)NCCCc2ccccc2)c(C)c1 ?
Output: 37.1

Task: Would you mind telling me what inhibition value was observed for CCOC(=O)C1CCN(Cc2ccc3ccccc3c2)CC1 ?
Output: 52.3

Task: # query: inhibition of entry CCC1Nc2ncnc(N3CCCCC3)c2N(Cc2ccc(C)cc2)C1=O (configuration not stated)
Output: 18.8

Task: Fill blank: measured inhibition of the molecule CCCCOC(=O)c1ccc(NS(=O)(=O)c2cc(-c3nnnn3CC)ccc2OC)cc1 is ____.
Output: 44.5

Task: Which inhibition is listed for O=C(c1ccco1)N1CCN(C(=O)c2ccccc2OC(=O)C23CC4CC(CC(C4)C2)C3)CC1 ?
Output: 74.6

Task: Item under review: COc1ccc(-c2noc(CN(C(=O)c3ccc4c(c3)OCO4)C(C)C)n2)cc1 . Reported inhibition?
Output: 27.6

Task: inhibition for CCC(=O)Nc1cc2c3c(c1)CCC(=O)N3CCC2 ?
Output: 101

Task: Recorded inhibition of Cc1cc(S(=O)(=O)NC2CCCCC2)ccc1OCC(=O)N1CCOCC1 , please.
Output: 97.6

Task: Which inhibition value is on record for O=c1c2ccccc2nc2n1C(CSc1ccc(F)cc1)CS2 (configuration not stated) ?
Output: 101

Task: Which inhibition is reported for this molecule? CCCCC1CCC(C(=O)NC2CCS(=O)(=O)C2)CC1 (configuration not stated)
Output: 16.6

Task: // inhibition lookup, key: CCc1ccc(C2CC(=O)N(c3cccc(F)c3)C3=C2C(=O)OC3)cc1 (configuration not stated)
Output: 33.7
